// provenance: ChEMBL document CHEMBL1961873

subject.of.test: Ribosomal protein S6 kinase alpha-1 (Homo sapiens)
condition.set: at 1 µM
measured.attribute: inhibition (%)
Write the answer as a number in %, unit excluded.

These recorded examples may help you get a feel for the data.
COc1cccc(-n2cnc3c(N/N=C/c4ccncc4)ncnc32)c1 ... 4.66
Fc1ccc(-c2ncn(C3CCNCC3)c2-c2ccnc(Oc3ccc4c(c3)OCO4)n2)cc1 ... 3.67
COc1cc(N2CCN(C(C)C)CC2)ccc1Nc1nc(Nc2ccc(F)cc2C(=O)NC[C@@H](O)CO)c2cc[nH]c2n1 ... 12.1

Fill blank: measured inhibition of the molecule O=C(Nc1ccc(Oc2ccc3[nH]c(NC(=O)c4ccccc4)nc3c2)cc1)Nc1cc(C(F)(F)F)ccc1F is ____. 5.03

Proceed to c1ccc(-c2n[nH]cc2-c2ccnc(-c3ccc(OCCN4CCOCC4)cc3)c2)nc1 -1.3

Proceed to COc1cccc(/C=N/Nc2ncnc3c2cnn3-c2cccc(OC)c2)c1 0.75

* * *

inhibition values, listed per item
subject.of.test: Ephrin type-A receptor 4 (Homo sapiens)
condition.set: at 1 µM
Description: GSK_PKIS: EPHA4 mean inhibition at 1 uM [Nanosyn]
Write the answer as a number in %, unit excluded.

These recorded examples may help you get a feel for the data.
CCc1ccc(Oc2nccc(-c3c(-c4ccc(F)cc4)ncn3C3CCNCC3)n2)cc1 ... 10.6
CCS(=O)(=O)c1ccc(OC)c(Nc2ncc(-c3ccccc3Cl)o2)c1 ... 9.33
Cc1ccc(NC(=O)c2ccoc2)cc1-c1ccc(C(=O)NCC2CC2)cc1 ... 6.13
COc1cccc(-n2cnc3c(N/N=C/c4ccncc4)ncnc32)c1 ... 25.6
NC(=O)c1ccc(Oc2nccc(-c3c(-c4ccc(F)cc4)ncn3C3CCNCC3)n2)cc1 ... 11
Cc1nnc(-c2ccc(C)c(-c3ccc(C(=O)NCc4ccc(Cl)cc4)cc3)c2)o1 ... 5.1

Fill blank: measured inhibition of the compound C[C@@H](Oc1cc(-n2cnc3ccc(OC4CCN(C)CC4)cc32)sc1C(N)=O)c1ccccc1Cl is ____. 9.83

Proceed to CCS(=O)(=O)c1ccc(OC)c(Nc2ncc(-c3cccc(-c4ccccc4F)c3)o2)c1 2.94

Proceed to CS(=O)(=O)CCNCc1ccc(-c2ccc3ncnc(Nc4ccc(OCc5ccccc5)c(Br)c4)c3c2)o1 10.9

Proceed to COc1ccc(-c2ccc3c(NC(=O)C4CC4)n[nH]c3n2)cc1 10.4

* * *

inhibition values, listed per item
subject.of.test: Macrophage colony-stimulating factor 1 receptor (Homo sapiens) (UniProt P07333)
Sequence (P07333 whole entry): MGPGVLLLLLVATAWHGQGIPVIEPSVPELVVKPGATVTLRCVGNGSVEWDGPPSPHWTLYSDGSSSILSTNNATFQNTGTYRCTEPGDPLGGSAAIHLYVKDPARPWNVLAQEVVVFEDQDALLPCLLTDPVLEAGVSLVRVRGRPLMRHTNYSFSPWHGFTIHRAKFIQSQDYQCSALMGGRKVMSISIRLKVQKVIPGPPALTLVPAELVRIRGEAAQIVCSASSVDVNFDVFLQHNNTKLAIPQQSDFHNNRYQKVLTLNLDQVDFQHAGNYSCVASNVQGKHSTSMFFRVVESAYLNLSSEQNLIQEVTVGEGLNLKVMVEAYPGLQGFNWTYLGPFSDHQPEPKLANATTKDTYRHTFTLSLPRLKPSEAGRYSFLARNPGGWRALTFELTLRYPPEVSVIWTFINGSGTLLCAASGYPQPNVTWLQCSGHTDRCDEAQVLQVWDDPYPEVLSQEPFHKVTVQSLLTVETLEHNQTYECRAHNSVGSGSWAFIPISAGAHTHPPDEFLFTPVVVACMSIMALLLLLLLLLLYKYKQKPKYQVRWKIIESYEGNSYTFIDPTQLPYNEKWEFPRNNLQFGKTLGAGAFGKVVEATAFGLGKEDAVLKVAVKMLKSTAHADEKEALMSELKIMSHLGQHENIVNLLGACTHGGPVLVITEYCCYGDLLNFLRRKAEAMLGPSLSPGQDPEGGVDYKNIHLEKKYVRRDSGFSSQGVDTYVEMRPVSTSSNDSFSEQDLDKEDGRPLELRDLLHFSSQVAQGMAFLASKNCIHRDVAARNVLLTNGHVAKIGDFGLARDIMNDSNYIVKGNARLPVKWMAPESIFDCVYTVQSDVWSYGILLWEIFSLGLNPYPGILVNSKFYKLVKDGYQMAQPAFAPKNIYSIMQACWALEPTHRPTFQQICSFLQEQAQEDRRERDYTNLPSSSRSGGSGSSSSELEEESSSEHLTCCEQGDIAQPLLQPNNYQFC
condition.set: at 0.1 µM
Write the answer as a number in %, unit excluded.

These recorded examples may help you get a feel for the data.
COc1cc(N2CCN(C(C)C)CC2)ccc1Nc1nc(Nc2ccc(F)cc2C(=O)NC[C@@H](O)CO)c2cc[nH]c2n1 ... 1.22
NC(=O)Cc1ccccc1Oc1nccc(-c2c(-c3ccc(F)cc3)ncn2C2CCNCC2)n1 ... 0.18
Nc1nccc(-c2c(-c3ccc(F)cc3)ncn2C2CCC(O)CC2)n1 (stereo unspecified) ... 2.19
O=C1Nc2ccccc2/C1=C/Nc1ccc(-n2cncn2)cc1 ... 6.47
Cc1ccc(C(=O)NC2CCC2)cc1-c1ccc(C(=O)NCC2CC2)cc1 ... -2.9

# context switch: different compound, same inhibition
Fill blank: measured inhibition of the compound O=C(Nc1n[nH]c2cc(-c3ccccc3)ccc12)C1CC1 is ____. 4.54

* * *

inhibition values, listed per item
subject.of.test: Dual specificity protein kinase CLK2 (Homo sapiens) (UniProt P49760)
Sequence (P49760 whole entry, looked up): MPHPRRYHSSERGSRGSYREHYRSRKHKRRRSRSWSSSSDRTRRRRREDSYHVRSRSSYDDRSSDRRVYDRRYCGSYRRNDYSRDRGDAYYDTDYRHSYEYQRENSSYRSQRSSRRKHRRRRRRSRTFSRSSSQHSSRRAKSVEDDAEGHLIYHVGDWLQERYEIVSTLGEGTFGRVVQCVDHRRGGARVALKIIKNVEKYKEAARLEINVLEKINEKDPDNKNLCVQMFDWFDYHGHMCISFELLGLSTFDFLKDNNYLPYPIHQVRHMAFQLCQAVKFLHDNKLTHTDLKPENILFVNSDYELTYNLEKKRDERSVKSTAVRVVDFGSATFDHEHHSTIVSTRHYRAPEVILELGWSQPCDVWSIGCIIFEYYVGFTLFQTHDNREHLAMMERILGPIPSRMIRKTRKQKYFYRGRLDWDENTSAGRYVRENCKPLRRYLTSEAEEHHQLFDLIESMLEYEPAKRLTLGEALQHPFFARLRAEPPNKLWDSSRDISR
condition.set: at 1 µM

These recorded examples may help you get a feel for the data.
Cc1nnc(-c2ccc(C)c(-c3ccc(C(=O)NCc4ccc(Cl)cc4)cc3)c2)o1 ... 0.92%
NC(=O)c1ccc(Oc2nccc(-c3c(-c4ccc(F)cc4)ncn3C3CCNCC3)n2)cc1 ... 6.51%
CN1CCN(CCCNc2nc3ccc(Oc4ccc(NC(=O)Nc5cc(C(F)(F)F)ccc5F)cc4)cc3[nH]2)CC1 ... 1.41%
COc1cccc(-n2cnc3c(N/N=C/c4ccncc4)ncnc32)c1 ... 5.72%
Fc1ccc(-c2ncn(CCCN3CCOCC3)c2-c2ccncc2)cc1 ... 2.52%

# context switch: different molecule, same inhibition
Fill blank: measured inhibition of the molecule Fc1ccc(-c2ncn(C3CCNCC3)c2-c2ccnc(Oc3ccc4c(c3)OCO4)n2)cc1 is ____. 0.01%
